Target: T1, HNRNPH1 full-length (UniProt P31943 1-449)
T1 sequence: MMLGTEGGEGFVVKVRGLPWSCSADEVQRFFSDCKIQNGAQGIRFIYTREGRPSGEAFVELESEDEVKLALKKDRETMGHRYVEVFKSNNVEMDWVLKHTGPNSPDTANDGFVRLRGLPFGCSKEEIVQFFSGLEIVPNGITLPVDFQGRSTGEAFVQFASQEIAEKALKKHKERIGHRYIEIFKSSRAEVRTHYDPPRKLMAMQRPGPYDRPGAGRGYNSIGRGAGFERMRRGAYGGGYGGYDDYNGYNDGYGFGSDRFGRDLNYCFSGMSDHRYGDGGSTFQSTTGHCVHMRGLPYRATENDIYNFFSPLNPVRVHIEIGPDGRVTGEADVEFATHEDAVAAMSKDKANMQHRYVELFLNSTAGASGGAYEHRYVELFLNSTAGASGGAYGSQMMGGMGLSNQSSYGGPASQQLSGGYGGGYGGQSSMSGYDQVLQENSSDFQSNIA
Assay: competition

binder | IC50 (nM)
ACCGGGGCAGGGGAAGAGGGGGAUU (structured_RNA) [rG1 nonbiotinylated competitor] | 84
